Origin of values: patent US20250027068

target: pooled human IgG (human IgG1, 2, 3 and 4)
assay_metric: Enzyme Activity Endpoint Assay: Fc (ng/µL)
API: value field is a number in ng/µL; no unit string.

Query block: // Enzyme Activity Endpoint Assay: Fc lookup, key: PRT-575 (protein) MANQEIRYSEETPKTITSVWTKGVTPPTDFIYNEDVLHAPYIANQGWYDITKTFNGKDDLLCGAATAGNMLHWWFDQNKEQIERYLKKHPEKQKINFNGEQMFDVKEAIDTKDSQTNSKLFEYFKDKAFPYLSTKHLGVFPDHVIDMFINGYRLSLTNHGPTPVKEQTKDPRGGIFDAVFTRGDQSKLLTSRHDFKEKTLKEISDLIKQELTEGKALGLSHTYANVRINHVINLWGADFDAEGNLEAIYVTDSDSNASIGMKKYYVGVNSAGKVAISAKEIEGDNIGAQVLGLFTLSTGKDIWEQTNLEHHHHHH
Result block: 309

Query block: Now consider PRT-487 (protein) MVTSVWTKGVTPPTDFIKGEDVFHAPYKAGQGWYDITKTFNGKDNLLCGAATAGNMLHWWFDQNKDQIERYLKEHPEKQKIIFNNQELFDLKAAIDTKDSQTDSKLFEYFKEKAFPYLSTKHLGVFPDHVLDMFINGYRLSLTNHGPTPVKEGSKDKRGGIFDAVFTRGVQSKLLTSRHDLKNKTLKEISDLIKQELTEGKALGLSHTYANVRINHVINLWGADFDSEGNLKAIYVTDSDTNASIGMKKYFVGVNSAGKVAISAKEIKEDNIGAQVLGLFTLSTGQDIWNQTNLEHHHHHH .
Result block: 22
